- System: Rattus norvegicus
- Assay Protocol: Mean excretion of potassium in conscious rats at a dose of 30 mg/kg given orally
- Assay type: ADME, organism-based
- Set-up: dose 30 mg/kg, route oral
- Experimental Parameters: in vivo, po

{"Compound": "CN(C)CC(c1ccccc1)c1nnc2n1-c1ccc(I)cc1C(c1ccccc1)=NC2 (stereo not given)", "Readout Units": "m equiv", "Mean excretion of K+": 0.24}
{"Compound": "CN(C)CCc1nnc2n1-c1ccc(Br)cc1C(c1ccccn1)=NC2", "Readout Units": "m equiv", "Mean excretion of K+": 0.37}
{"Compound": "CSc1ccc2c(c1)C(c1ccccc1)=NCc1nnc(C(CN(C)C)c3ccccc3)n1-2 (stereo not given)", "Readout Units": "m equiv", "Mean excretion of K+": 0.25}
{"Compound": "NS(=O)(=O)c1cc(C(=O)O)c(NCc2ccco2)cc1Cl [FUROSEMIDE]", "Readout Units": "m equiv", "Mean excretion of K+": 0.46}
{"Compound": "CN(C)CC(c1ccccc1Cl)c1nnc2n1-c1ccc(Cl)cc1C(c1ccccc1)=NC2 (stereo not given)", "Readout Units": "m equiv", "Mean excretion of K+": 0.16}
